- Test system: Mycobacterium tuberculosis H37Rv strain
- assay notes: Alamar blue (MABA) test, MIC on Mycobacterium tuberculosis H37Rv
- Type: cell-based
- measurement context: H37RV, read-out: fluorimetric MIC (minimum inhibitory concentration) with respect to the growth of Mycobacterium tuberculosis
Hi there, I'd appreciate the recorded MIC for every entry that follows.

MIC recorded for this molecule, O=C(NCCc1cccc(Cl)c1)c1nc2cc(C(F)(F)F)cc([N+](=O)[O-])c2s1 [Compound 16] , is < 0.5 µM

Record O=C(NCCc1nc2ccccc2o1)c1nc2cc(C(F)(F)F)cc([N+](=O)[O-])c2s1 [Compound 38] , field MIC: < 0.5 µM

Value of MIC reported for the molecule O=C(NCCc1ccccc1O)c1nc2cc(C(F)(F)F)cc([N+](=O)[O-])c2s1 [Compound 17] is < 0.5 µM

Lab note: measured MIC of O=C(NCCc1ccc(O)cc1)c1nc2cc(C(F)(F)F)cc([N+](=O)[O-])c2s1 [Compound 18] was < 0.5 µM
